- Test system: ACHN renal
- methodNotes: NCI-60 one-dose screen, 48 h (100 = growth as untreated, 0 = no growth, -100 = all killed)
- conditionInfo: 10 µM unless noted
The panel holds about 83,000 compounds, 20% with a hit somewhere; the sample as a whole holds those more often.
experimentalReadout: growth (%)
Field: numeric (%). Do not append units.

Query (compound): `Cc1cc(C)c2c(=O)[nH]c(SCC(=O)Nc3cccc(S(=O)(=O)N(C)C)c3)nc2n1` ; field requested: growth
108

If you can, please state the reported growth value of `CCC1=C[C@@H]2CN(C1)Cc1c([nH]c3ccccc13)[C@@](C(=O)OC)(c1cc3c(cc1OC)N(C=O)[C@H]1[C@@](O)(C(=O)OC)[C@H](OC(C)=O)[C@]4(CC)[C@@H]5C[C@@H]5CN5CC[C@]31[C@@H]54)C2` .
35.6

State the recorded growth for this entry: COc1cc(C2C3=C(COC3=O)Nc3c2ccc2c3CCCC2)cc2c1OCO2 (centres undefined)
29.2

Data request, read-out growth, for `Nc1c(C(=O)Nc2cccc(C(F)(F)F)c2)sc2nc3c(cc12)CCCCC3`
-67.4

====

Please respond with reported growth for every item in the list.
- Tested on: NCI-H522 lung
- methodNotes: NCI-60 one-dose screen, 48 h (100 = growth as untreated, 0 = no growth, -100 = all killed)
- conditionInfo: 10 µM unless noted
Compounds without any hit were thinned out: in the full panel of roughly 83,000, 20% have a hit.
Provide the reading as a plain figure in %.

What does the data say about its growth? Entry: `O=C(CSc1nc(-c2ccc(Cl)cc2)cn1-c1ccc(Cl)cc1)c1ccc(Br)cc1`
58.8

Fill in: growth of `O=S(=O)(NCCNc1cc(-c2cn(-c3ccccc3)nc2-c2ccccc2)ccn1)c1cccc2ccccc12` is ___
78.9

Give the measured growth of `COc1ccc(C(=O)/C=C/c2ccc(/C=C/c3cc(OC)c(OC)c(OC)c3)cc2)cc1` .
5.55

Would you mind telling me what growth value was observed for O=C1NC(Cc2c[nH]c3ccccc23)C(=O)N1Cc1ccc(Cl)cc1 (centres undefined) ?
86.7

Would you kindly share the measured growth for `COc1ccc2c(c1)C(=O)/C(=C/c1ccc(O)cc1)O2` ?
-97.9

I'd like to know its growth. The compound in question is `COc1ccc(/C=C2\C(=O)N(C(=O)c3csc(NC(C)=O)n3)N=C2C)cc1`
85.2

For the compound `Cc1nc(Nc2cccnc2)sc1C(=O)/C=C/c1ccc(F)cc1` , what growth is on record?
52

Record request: growth value, item C#CCC1(c2ccc(F)c(F)c2)NS(=O)(=O)c2ccccc21 (centres undefined)
65.5

# query: growth of entry `O=[N+]([O-])c1cccc(-c2cc(-c3cc(Br)ccc3O)[nH]n2)c1`
15.1

I would be grateful if you could share the reported growth for `C=C1C(=O)O[C@H]2[C@H](O)[C@@H](C)CCC/C(C)=C/CC[C@@]3(C)O[C@@H]3C[C@@H]12` .
-17.3

Would you mind telling me what growth value was observed for `Cc1cc(C)c(NC(=O)c2sc3nc4c(cc3c2N)CN(Cc2ccccc2)CC4)c(C)c1` ?
13.5

Given the compound CCC1CCc2nc3sc(C(=O)Nc4ccccc4F)c(N)c3cc2C1 (centres undefined) , what is its reported growth?
71.9

I'd like to know its growth. The compound in question is CC1(C)OC2COC3(C(=O)O)OC(C)(C)OC3C2O1 (centres undefined)
90.2

Data request, read-out growth, for `CCC1=C[C@@H]2CN(C1)Cc1c([nH]c3ccccc13)[C@@](C(=O)OC)(c1cc3c(cc1OC)N(C=O)[C@H]1[C@@](O)(C(=O)OC)[C@H](OC(C)=O)[C@]4(CC)[C@@H]5C[C@@H]5CN5CC[C@]31[C@@H]54)C2`
-0.697
